Heads up, these compounds all have pIC50 values measured for Human JNK2α2 (Homo sapiens (Human)).
Scale: negative log10 of molar concentration, which is what pIC50 denotes.

Sample Smiles	Target Or Test System	Observed Property	Value Reported
N#CCC(=O)N1CCN(c2cccc3c2ccn3-c2ccnc(N[C@H]3CCC[C@@H](O)C3)n2)CC1	Human JNK2α2 (Homo sapiens (Human))	pIC50	6.75
N#CCC(=O)O[C@H]1CCC[C@H](Nc2nccc(-n3ccc4c(N5CCN(C(=O)CC#N)CC5)cccc43)n2)C1	Human JNK2α2 (Homo sapiens (Human))	pIC50	6.78
N#CCC(=O)N1CCN(c2cccc3c2ccn3-c2ccnc(N[C@H]3CC[C@H](CN4CC[C@@H](O)C4)CC3)n2)CC1	Human JNK2α2 (Homo sapiens (Human))	pIC50	7.59

Turning now to a further compound:
Exam item: # value lookup — system Human JNK2α2 (Homo sapiens (Human)), readout pIC50, item "N#CCC(=O)N1CCN(c2cccc3c2ccn3-c2ccnc(N[C@@H]3CC[C@H](O)C3)n2)CC1"
Marked response: 6.24

---

Target: Human JNK1α1 (Homo sapiens (Human))
Sequence (P45983 other isoform, or with tags, fused parts or gaps): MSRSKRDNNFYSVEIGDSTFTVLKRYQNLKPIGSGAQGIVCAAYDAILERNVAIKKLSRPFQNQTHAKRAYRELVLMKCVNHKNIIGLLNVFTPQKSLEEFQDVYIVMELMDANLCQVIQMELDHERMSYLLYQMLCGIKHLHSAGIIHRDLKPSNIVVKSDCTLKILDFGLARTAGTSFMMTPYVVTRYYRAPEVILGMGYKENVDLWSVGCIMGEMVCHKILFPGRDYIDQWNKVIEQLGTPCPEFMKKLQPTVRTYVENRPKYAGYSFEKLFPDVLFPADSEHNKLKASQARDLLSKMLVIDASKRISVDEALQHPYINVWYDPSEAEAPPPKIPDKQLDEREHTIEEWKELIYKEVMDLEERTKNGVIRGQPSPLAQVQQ
Observed Property: IC50 (nM)
Your answer should be a plain number; it is taken to be in nM.

Sample Smiles	Target Or Test System	IC50, nM
CC(=O)N1CCN(c2cccc3c2ccn3-c2ccnc(N[C@H]3CC[C@H](C(=O)N4CCC(O)CC4)CC3)n2)[C@H](C)C1	Human JNK1α1 (Homo sapiens (Human))	31.2
CS(=O)(=O)N[C@H]1CC[C@H](Nc2nccc(-n3ccc4c(N5CCC(O)CC5)cccc43)n2)CC1	Human JNK1α1 (Homo sapiens (Human))	42.9
N#CCC(=O)N1CCN(c2cccc3c2ccn3-c2ccnc(N[C@H]3CC[C@H](O)CC3)n2)CC1	Human JNK1α1 (Homo sapiens (Human))	4.4
CS(=O)(=O)N[C@H]1CC[C@H](Nc2nccc(-n3ccc4c(N5CCN(C(=O)CC#N)CC5)cccc43)n2)CC1	Human JNK1α1 (Homo sapiens (Human))	5.4
CS(=O)(=O)N[C@H]1CC[C@H](Nc2nccc(-n3ccc4c(N5CCN(C(=O)CN)CC5)cccc43)n2)CC1	Human JNK1α1 (Homo sapiens (Human))	77.7

Exam item: Item under review: "CC(=O)N1CCN(c2cccc3c2ccn3-c2ccnc(N[C@H]3CC[C@H](CS(C)(=O)=O)CC3)n2)CC1" . Reported IC50?
Marked response: 25

Exam item: Name the reported IC50 value associated with the compound "CC(=O)N[C@H]1CC[C@H](Nc2nccc(-n3ccc4c(N5CCC(S(C)(=O)=O)CC5)cccc43)n2)CC1"
Marked response: 6.6

Exam item: What value of measured IC50 is listed for "CC(C)(O)[C@H]1CC[C@H](Nc2nccc(-n3ccc4c(N5CCC(S(C)(=O)=O)CC5)cccc43)n2)CC1" ?
Marked response: 3

---

These records show pIC50 for Human JNK2α2 (Homo sapiens (Human), UniProt P45984).
# log scale: pIC50 equals minus log10 of the concentration in mol/L

Consider the worked cases shown below.
Molecule	pIC50
CS(=O)(=O)C1CCN(c2cccc3c2ccn3-c2ccnc(N[C@H]3CC[C@H](C(=O)N4CCn5c(nnc5C(F)(F)F)C4)CC3)n2)CC1 [Compound I-51]	8.21
CS(=O)(=O)N[C@H]1CC[C@H](Nc2nccc(-n3ccc4c(N5CCN(S(C)(=O)=O)CC5)cccc43)n2)CC1 [Compound I-3]	6.74

Now examine the next entry.
Exam item: Return pIC50 measured with Human JNK2α2 (Homo sapiens (Human), UniProt P45984) given this molecule: N#CCC(=O)N1CCN(c2cccc3c2ccn3-c2ccnc(N[C@H]3CC[C@@H](O)CC3)n2)CC1 [Compound I-57]
Sequence (P45984 whole entry): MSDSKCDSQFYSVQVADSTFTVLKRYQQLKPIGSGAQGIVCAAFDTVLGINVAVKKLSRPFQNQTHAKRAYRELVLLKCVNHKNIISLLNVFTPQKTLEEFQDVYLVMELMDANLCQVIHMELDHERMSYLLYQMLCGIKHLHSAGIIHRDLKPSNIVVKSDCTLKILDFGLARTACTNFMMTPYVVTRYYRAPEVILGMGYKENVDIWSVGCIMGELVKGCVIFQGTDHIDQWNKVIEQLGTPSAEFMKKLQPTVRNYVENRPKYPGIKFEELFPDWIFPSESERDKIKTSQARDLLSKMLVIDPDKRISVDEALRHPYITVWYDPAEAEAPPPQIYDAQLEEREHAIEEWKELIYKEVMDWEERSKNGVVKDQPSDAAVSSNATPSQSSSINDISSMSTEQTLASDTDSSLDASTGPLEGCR
Marked response: 7.05
